Test system: Candida albicans
Conditions: 32 ug/mL
Description: Antifungal activity against Candida albicans ATCC 90028 (CO-ADD:FG_001); MIC in YNB media using NBS plates, by OD630
Potency and affinity values are given separately.
Field: Inhibition. Provide a value for each of the molecules that follow.
Give bare numbers, in %.

// "N#Cc1cc(C#N)c(N2C3CCC2CC3)nc1N" : Inhibition value = 3.02

Provide Inhibition values for the following items, in order.
1. Cl.ClCCN1CCCCC1
2. C#CCN1CCc2nc3ncccc3c(N)c2C1.Cl
3. C#CCN(C)Cc1cc2cc(OCCCC3CCN(Cc4ccc(OC(=O)N(C)C)c5ncccc45)CC3)ccc2n1C
4. CCOC(=O)C1=C(C)NC(=O)CC1c1ccccc1 (centres undefined)
5. Cc1ccccc1C=C(C#N)C#N
6. Cl.ClCCN1CCCC1
7. OCC(Cc1cnc[nH]1)NCc1ccccc1 (centres undefined)
8. N#CC(C#N)=Cc1ccc(Cl)cc1

Output line:
1. 4.96
2. 2.69
3. 5.51
4. 2.43
5. -0.55
6. 5.34
7. 0.31
8. 0.02

* * *

Please provide measured Inhibition for the entries that follow.
Test system: Cryptococcus neoformans
Settings: Concentration 32 ug.mL-1; ASSAY_TEST Inhibition of Fungal Growth; detection method Resazurin; Absorption (OD600-OD570); plate type 384well; NBS; CORNING #3640
Description: Antifungal activity against Cryptococcus neoformans H99 ATCC 208821 (CO-ADD:FG_002); MIC in YNB media using NBS plates, by Resazurin OD(600-570)
Potency and affinity values are given separately.
Answer shape: numeric part, then the unit.

See these solved cases before continuing.
Measured Inhibition of "COc1ccc(C=C(C#N)C#N)cc1OC" : -1.94%

Inhibition measured on "C#CCN1CCc2nc3nc(OC)c(C#N)cc3c(N)c2C1" = -73.36%

Memo: O=C(N1[C@H]2CC[C@@H]1C(c1nnn[nH]1)C2)C(F)(F)F (stereo partly drawn) , reported Inhibition: -32.17%

I need Inhibition for every entry listed below, if you could help.
1. Cc1ccc(C=C(C#N)C#N)cc1
2. CCOC(=O)C1=C(OC)OC(=O)CC1c1ccccc1 (stereo not drawn)
3. NNC(=O)c1cccnc1 [NICOTINIC ACID HYDRAZIDE]
4. CCOC(=O)C1=C(C)NC(=O)CC1c1ccccc1 (stereo not drawn)
5. Cl.ClCCN1CCCCC1
6. NNC(=O)c1cn(Cc2ccccc2)c2ccccc12
7. C#CCN(C)Cc1cc2cc(OCCCC3CCN(Cc4ccc(OC(=O)N(C)C)c5ncccc45)CC3)ccc2n1C

Output line:
-5.46%
-58.88%
-4.91%
-58.04%
-9.27%
3.84%
-77.63%

Record Inhibition for all entries; do not skip any.
1. Cl.ClCCN1CCCC1
2. CC1CC(=O)Nc2nc3c(c(N)c21)CCCC3 (stereo not drawn)
3. Nc1c2c(nc3c1C(c1ccccc1)CC(=O)N3)CCCC2 (stereo not drawn)

Output line:
["-1.83%", "-54.55%", "-63.29%"]

* * *

Tested on: Klebsiella pneumoniae
Settings: Concentration 32 ug.mL-1; ASSAY_TEST Inhibition of Bacterial Growth; detection method Absorption (OD600); MEDIA CAMHB; plate type 384well; NBS; CORNING #3640; time 18 hr
Description: Antibacterial activity against Klebsiella pneumoniae MDR ATCC 70063 (CO-ADD:GN_003); MIC in CAMBH media using NBS plates, by OD(600)
Measured potencies and affinities stand elsewhere.
measurement_type: Inhibition (%)
Give bare numbers, in %.

Reference set (6 entries):
The measured Inhibition associated with CC1CC(=O)Nc2nc3c(c(N)c21)CCCC3 (configuration not stated) reads 14.16

Per the record, "NNC(=O)c1cn(Cc2ccccc2)c2ccccc12" has Inhibition of 10.74

Sample "CN1CC=C(c2cccn2C)CC1" ; Inhibition observed: 7.84

GET /value?item= "Cc1ccccc1C=C(C#N)C#N" &field=Inhibition returns -3.33

Per the records, this compound ( "O=C(CBr)NCc1ccccc1" ) has Inhibition equal to 15.98

response.value for "CNCc1cn(C)c2ccc(OC)cc12.Cl" (field: Inhibition) = 11.42

Batch request: Inhibition for each of the following compounds.
1. COc1ccc2c(c1)cc(C[N+](C)(C)C)n2C.[I-]
2. OCC(Cc1cnc[nH]1)NCc1ccccc1 (configuration not stated)
3. C#CCN1CCc2nc3nc(OC)c(C#N)cc3c(N)c2C1
4. CCOC(=O)C1=C(C)OC(=O)CC1c1ccccc1 (configuration not stated)
5. CCOc1nc2nc(C)c(C(=O)O)cc2c(-c2ccccc2)c1C#N
6. Cc1ccc(C=C(C#N)C#N)cc1
7. N#CCC(=O)c1ccccc1

Output line:
1: 16.42; 2: 4.01; 3: 9.96; 4: 8.11; 5: 7.3; 6: 9.23; 7: 12.74

* * *

Tested on: Cryptococcus neoformans
Conditions: Concentration 32 ug.mL-1; ASSAY_TEST Inhibition of Fungal Growth; detection method Resazurin; Absorption (OD600-OD570); plate type 384well; NBS; CORNING #3640
Potency and affinity values are given separately.
I'd appreciate it if you could supply Inhibition values for the items below.
One number for each entry, in %.

Recorded Inhibition, per entry:
Tested system Cryptococcus neoformans; Inhibition recorded for CCOC(=O)C1=C(C)OC(=O)CC1c1ccccc1 (stereo unspecified) was -25.58

Value (Inhibition, Cryptococcus neoformans) for record "C#CCN1CCc2nc3nc(Cl)c(C#N)cc3c(N)c2C1" = -89.58

Measured on Cryptococcus neoformans, "Cc1ccc(S(=O)(=O)N2[C@H]3CC[C@@H]2CC3)cc1" has a documented Inhibition of -10.99

Log: Cryptococcus neoformans, molecule "[N-]=[N+]=NCC(=O)c1ccc(Br)cc1" , Inhibition = -9.49

Form: item "CCOC(=O)c1cn(Cc2ccccc2)c2ccccc12" ; test system Cryptococcus neoformans; Inhibition: -2.24

Result for "CN(C)C(=O)Oc1ccc(CCl)c2cccnc12" , tested on Cryptococcus neoformans, Inhibition: -46.72

Please give Inhibition for each item listed below.
1. Nc1c2c(nc3ccccc13)CCN(Cc1ccccc1)C2
2. OCC(Cc1cnc[nH]1)NCc1ccccc1 (stereo unspecified)
3. CCOc1nc2nc(C)c(C(=O)O)cc2c(-c2ccccc2)c1C#N

Output line:
[-78.39, 1.68, -54.07]

The following molecules each have a reported value; give each one's Inhibition.
1. COc1ccc2c(c1)cc(C[N+](C)(C)C)n2C.[I-]
2. N#Cc1cc(C#N)c(N2C3CCC2CC3)nc1N

Output line:
1. -0.09
2. -1.32

* * *

For each of the compounds below, state its Inhibition.
Tested on: Klebsiella pneumoniae
Details: Concentration 32 ug.mL-1; ASSAY_TEST Inhibition of Bacterial Growth; detection method Absorption (OD600); MEDIA CAMHB; plate type 384well; NBS; CORNING #3640; time 18 hr
Potency and affinity values are given separately.
One number for each entry, in %.

Solved cases (4 shown):
"Cc1nc(N)c(C#N)cc1C(=O)O" yielded Inhibition of -3.56

Memo: "Cc1ccc(S(=O)(=O)N2[C@H]3CC[C@@H]2CC3)cc1" , reported Inhibition: 13.85

Lab note: measured Inhibition of "CCOC(=O)c1cc2cc(OC(=O)NC3CCN(Cc4ccccc4)CC3)ccc2[nH]1" was 1.99

According to the records, this compound "C#CCN(C)Cc1cc2cc(OCc3ccc(OC(=O)N(C)C)c4ncccc34)ccc2n1C" displays Inhibition of -0.57

Okay, here is my list. What is Inhibition for each of these?
1. N#CC(C#N)=Cc1ccc(Cl)cc1
2. O=C(N1[C@H]2CC[C@@H]1C(c1nnn[nH]1)C2)C(F)(F)F (stereo partly specified)

Output line:
1: 17.25; 2: 13.67

* * *

System: Candida albicans
Conditions: 32 ug/mL
Entries with a potency or affinity are not part of this list.
measurement_type: Inhibition
Answer format: value, then unit.

Solved entries (count: 4):
Reported Inhibition of "CN1CC=C(c2cccn2C)CC1.Cl" : 3.38%

Lookup result for CC1CC(=O)Nc2nc3c(c(N)c21)CCCC3 (stereo not given) ; measured Inhibition: 2.93%

Quick note, Inhibition for "[N-]=[N+]=NCC(=O)c1ccc(Br)cc1" landed at 3.1%

Briefly, Inhibition measured for CCOC(=O)C1=C(OC)OC(=O)CC1c1ccccc1 (stereo not given) : 1.67%

Field: Inhibition. Fill in for each record below.
1. Nc1c2c(nc3c1C(c1ccccc1)CC(=O)N3)CCCC2 (stereo not given)
2. CCOC(=O)c1cn(Cc2ccccc2)c2ccccc12
3. C#CCN(C)Cc1cc2cc(OCc3ccc(OC(=O)N(C)C)c4ncccc34)ccc2n1C

Output line:
1: 1%; 2: -1.33%; 3: 1.92%

I would be grateful if you could provide Inhibition for each of the following entries.
1. NNCCCc1c[nH]c2ccccc12.O=C(O)/C=C/C(=O)O
2. CN1CC=C(c2cccn2C)CC1
3. C#CCN1CCc2nc3nc(Cl)c(C#N)cc3c(N)c2C1
4. COc1cc(C2C(C#N)=C(N)Oc3c2ccc2ccccc32)cc(OC)c1OC (stereo not given)
5. O=C(N1[C@H]2CC[C@@H]1C(c1nnn[nH]1)C2)C(F)(F)F (stereo not given in full)
6. Cc1nc(N)c(C#N)cc1C(=O)O
7. CNCc1cn(C)c2ccc(OC)cc12.Cl

Output line:
["1.63%", "3.67%", "0.36%", "-0.44%", "1.81%", "1.23%", "1.37%"]

// "Nc1c2c(nc3ccccc13)CCN(Cc1ccccc1)C2" : Inhibition value = -0.35%

Reference for the values: ChEMBL document CHEMBL4513135
